Listing: Bliss excess of selected compounds
- System: RVH-421 (Melanoma);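 further: after 72 h of two-drug dosing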
- TEST_DESCRIPTION: Bliss excess, mean over the matrix (fraction); higher = more synergy

Example entries and their recorded answers appear below.
CC1(C)CCC(CN2CCN(c3ccc(C(=O)NS(=O)(=O)c4ccc(NCC5CCOCC5)c([N+](=O)[O-])c4)c(Oc4cnc5[nH]ccc5c4)c3)CC2)=C(c2ccc(Cl)cc2)C1 [Venetoclax] + COc1cc(Nc2ncc3c(n2)-c2ccc(Cl)cc2C(c2c(F)cccc2OC)=NC3)ccc1C(=O)O [Alisertib] (first compound max 1 µM, 7x7, partner max 10 µM) :: -0.058
Cc1c2c(nn1C)CSCc1cc(n(C)n1)CSc1cc(c3ccccc3c1)OCCCc1c(C(=O)O)n(C)c3c-2c(Cl)ccc13 [AZD5991] + CCN(CCO)CCCOc1ccc2c(Nc3cc(CC(=O)Nc4cccc(F)c4)[nH]n3)ncnc2c1 [AZD2811] (first compound max 1 µM, 7x7, partner max 1 µM) :: -0.0055
Cc1cc2ncnn2cc1Nc1ncc2c(n1)n(C1CCOCC1)c(=O)n2C [AZD7648] + O=C(c1cc(Cc2n[nH]c(=O)c3ccccc23)ccc1F)N1CCN(C(=O)C2CC2)CC1 [Olaparib] (first compound max 10 µM, 7x7, partner max 10 µM) :: -0.0684

Observed Bliss excess on RVH-421 (Melanoma) for COc1cccc(OCCCN)c1-c1cc(Nc2cnc(C#N)cn2)n[nH]1 [Prexasertib] + Cc1cc2ncnn2cc1Nc1ncc2c(n1)n(C1CCOCC1)c(=O)n2C [AZD7648] (first compound max 1 µM, 7x7, partner max 10 µM) , please.
-0.0417

Observed Bliss excess on RVH-421 (Melanoma) for Cc1cc2ncnn2cc1Nc1ncc2c(n1)n(C1CCOCC1)c(=O)n2C [AZD7648] + C=CCn1c(=O)c2cnc(Nc3ccc(N4CCN(C)CC4)cc3)nc2n1-c1cccc(C(C)(C)O)n1 [AZD1775] (first compound max 10 µM, partner max 1 µM) , please.
0.0039

Observed Bliss excess on RVH-421 (Melanoma) for Cc1c2c(nn1C)CSCc1cc(n(C)n1)CSc1cc(c3ccccc3c1)OCCCc1c(C(=O)O)n(C)c3c-2c(Cl)ccc13 [AZD5991] + CN(C)CCCOc1ccc(-c2ccc3ncc4c(c3c2)n(C2CCOCC2)c(=O)n4C)cn1 [AZD0156] (first compound max 1 µM, 7x7, partner max 1 µM) , please.
0.0113

Observed Bliss excess on RVH-421 (Melanoma) for CC(=O)Nc1cccc(-n2c(=O)n(C3CC3)c(=O)c3c(Nc4ccc(I)cc4F)n(C)c(=O)c(C)c32)c1 [Trametinib] + Cc1nc(-c2cn3c(n2)-c2ccc(-c4cnn(C(C)(C)C(N)=O)c4)cc2OCC3)n(C(C)C)n1 [Taselisib] (first compound max 1 µM, 7x7, partner max 10 µM) , please.
0.0732
